assay: gradient 5% acetonitrile 3 min, to 50% in 2 min, to 85% in 15 min, held 3 min, 100 µL/min; settings: column: Zorbax Extend-C18 2.1 x 50 mm; eluents: water / acetonitrile, 0.1% formic acid
readout_kind: RP-LC retention time (s)

- compound: "Cc1cc(C)n2c(Nc3cccc(C(F)(F)F)c3)c(-c3ccc(F)cc3)nc2n1"
  test_value: 829
- compound: "Cn1ncc(N2CCCC(CC(=O)N3CCSCC3)C2)cc1=O (centres undefined)"
  test_value: 666
- compound: "NC(=O)C1CCN(C(=O)C2COC3(CCCCC3)N2C(=O)c2ccccc2)CC1 (centres undefined)"
  test_value: 606
- compound: "Cc1cc(-c2nnc(-c3ccc(F)cc3)o2)c(C)n1CC(=O)NCC1CCCO1 (centres undefined)"
  test_value: 771
- compound: "O=C(Nc1ccc(F)c(F)c1)C1CCN(C(=O)C2Sc3ccccc3NC2=O)CC1 (centres undefined)"
  test_value: 810
- compound: "Cc1cc(C)c(NC(=O)C2CCCN(c3nnc(C)c4c(C)n(-c5ccccc5)nc34)C2)c(C)c1 (centres undefined)"
  test_value: 769
- compound: "O=C(CN1C(=O)CCC1=O)Nc1ccc2c(c1)CN(C(=O)c1cccs1)CC2"
  test_value: 630
- compound: "O=C(CN1C(=O)CCC1=O)NCC(O)C1CCCCC1 (centres undefined)"
  test_value: 597
- compound: "Cc1nncn1C1CN(C(=O)c2ccc(OC(F)(F)F)cc2)C1"
  test_value: 654
- compound: "Cn1c(=O)sc2cc(S(=O)(=O)N3CCC(C(=O)NCCC4=CCCCC4)CC3)ccc21"
  test_value: 911
- compound: "CCOC(=O)c1ccccc1NC(=O)N1CCC2(CC1)NC(=O)c1ccccc1O2"
  test_value: 922
- compound: "Cc1cc(OCC(=O)N2CCC(C)CC2)nc(-c2ccc(Cl)cc2)n1"
  test_value: 1150
- compound: "Cc1ccc(Nc2nc(C)cc(N3CCN(S(=O)(=O)c4cccc(C(F)(F)F)c4)CC3)n2)cc1"
  test_value: 886
- compound: "CCc1ccc(NC(=O)C2CCN(S(=O)(=O)c3ccc4c(c3)CCCC(=O)N4)CC2)cc1"
  test_value: 834
- compound: "Cc1nn(-c2ccc(F)cc2)c2nc(N3CCCC(C(=O)NCc4ccc(F)cc4)C3)sc12 (centres undefined)"
  test_value: 1110
- compound: "CCCCNC(=O)Cn1c(=O)c2cccn2c2ccc(F)cc21"
  test_value: 773
- compound: "Cc1ccc(NC(=O)N2CCc3c(c(-c4nnc(-c5ccc(F)cc5)o4)nn3C)C2)cc1Cl"
  test_value: 1010
- compound: "CCOc1ccc(S(=O)(=O)Nc2cccc(-c3cn4cccc(C)c4n3)c2)cc1"
  test_value: 666
- compound: "COc1ccccc1CNC(=O)C1CCCN(c2nnc(C)c3c(C)n(-c4ccccc4)nc23)C1 (centres undefined)"
  test_value: 725
- compound: "COc1ccc(-n2nc(SCC(=O)Nc3cc(F)ccc3F)ccc2=O)cc1"
  test_value: 756
- compound: "Cc1nnc2ccc(-c3noc(-c4ccccc4Br)n3)cn12"
  test_value: 908
- compound: "CC(C)c1noc(COC2CCCN(C(=O)NCc3ccco3)C2)n1 (centres undefined)"
  test_value: 774
- compound: "O=C(C1CCCN(S(=O)(=O)N2CCOCC2)C1)N1CCN(c2ccc(F)cc2)CC1 (centres undefined)"
  test_value: 807
- compound: "CC(NCC(O)COCCOc1ccc(F)cc1)c1ccccc1 (centres undefined)"
  test_value: 595
- compound: "O=C(NCc1csc(C2CCCN(C(=O)c3ccccc3)C2)n1)C1CC1 (centres undefined)"
  test_value: 693
- compound: "CCOc1ccc(NC(=O)N2CCN(c3cc(C)nc(N4CCOCC4)n3)CC2)cc1"
  test_value: 624
- compound: "Cc1ccc(-n2c(N3CCCC(C(=O)NCCC4=CCCCC4)C3)nc3ccsc3c2=O)cc1 (centres undefined)"
  test_value: 1060
- compound: "CCC1(O)CCOC2(CCN(Cc3cc(OC)cc(OC)c3)CC2)C1 (centres undefined)"
  test_value: 568
- compound: "CCc1nc2c(=O)n(CC(=O)N3CCCCC3)nc(C)c2s1"
  test_value: 673
- compound: "CNC(=O)c1cc(=O)n(CC(=O)Nc2ccc3c(c2)OCO3)c2ccccc12"
  test_value: 658
- compound: "CCN1C(=O)C(C)(C(=O)Nc2ccc(OC)cc2)Oc2cccnc21 (centres undefined)"
  test_value: 827
- compound: "O=S(=O)(c1ccc(F)c(Cl)c1)N1CCc2nc[nH]c2C1"
  test_value: 632
- compound: "O=C(C1=CN(c2ccccc2)c2cc(Cl)ccc2S1(=O)=O)N1CCCC1"
  test_value: 827
- compound: "CCc1ccccc1NC(=O)N(C)CCc1noc(COc2ccccc2)n1"
  test_value: 962
- compound: "Cc1ccc(OCc2nnc3sc(C4COc5ccccc5O4)nn23)cc1 (centres undefined)"
  test_value: 1010
- compound: "COCCc1noc(C2Cc3ccccc3N2C(=O)NCC(C)C)n1 (centres undefined)"
  test_value: 859
- compound: "O=C(Cn1ccn2nc(-c3ccc(F)cc3)c(CO)c2c1=O)Nc1ccc(F)c(F)c1"
  test_value: 865
- compound: "CCCN1C(=O)c2cc(S(=O)(=O)Nc3ccc(OC)cc3)ccc2Oc2cccnc21"
  test_value: 1030
- compound: "Cn1c(=O)c(SCC(=O)NCc2cccc(Br)c2)nc2cccnc21"
  test_value: 806
